FYI, the data here is from patent US10517889B2.

Record form. Attribute: % Inhibition. Fill in for each entry.
System: human SMAD7 mRNA
Assay: Antisense inhibition of human SMAD7 mRNA expression in Hep3B cells by 3-10-3 cEt gapmers, 10,000 nM, electroporation (Example 2)
Type: cell-based
Settings: Hep3B cells, electroporation with 10,000 nM antisense oligonucleotide, approximately 24 hours, SMAD7 mRNA by RT-PCR (RTS5062), relative to untreated control cells
Strand notation (5' to 3'): a small letter for the sugar, then the base; units joined by * are phosphorothioate-linked, units joined directly phosphodiester-linked; [ ] holds rarer units or linkages, { } end groups; capitals alone tell only the bases. k = constrained ethyl (cEt); [5mC] = 5-methylcytosine; d = 2'-deoxy (DNA)

In the examples that follow, each entry is paired with its recorded % Inhibition.
830050 (kA*kG*kT*dT*dT*d[5mC]*d[5mC]*dG*dA*dT*dT*dG*dG*k[5mC]*kA*kG; antisense) [compound 830050] ... 39%
799967 (kG*kA*k[5mC]*dG*dA*dT*dG*dA*dA*dT*d[5mC]*d[5mC]*dT*kG*kG*k[5mC]; antisense) [compound 799967] ... 72%
799942 (antisense kA*kA*k[5mC]*dA*d[5mC]*dT*dG*dG*dT*dT*d[5mC]*d[5mC]*dA*kT*kT*kT) [compound 799942] ... 0%

Record % Inhibition for all entries; do not skip any.
1. 798680 (antisense k[5mC]*kA*kT*dG*dA*d[5mC]*d[5mC]*dT*d[5mC]*d[5mC]*dG*d[5mC]*dA*k[5mC]*kA*k[5mC]) [compound 798680]
2. 800019 (kG*kG*k[5mC]*dA*dA*dA*dA*d[5mC]*dT*d[5mC]*dA*d[5mC]*dA*kG*kT*k[5mC]; antisense) [compound 800019]
3. 798771 (k[5mC]*k[5mC]*kG*dA*dG*dG*dA*dA*dT*dG*d[5mC]*d[5mC]*dT*kG*kA*kG; antisense) [compound 798771]
4. 800068 (antisense kA*k[5mC]*kA*d[5mC]*dT*dA*dA*d[5mC]*dT*dG*dG*d[5mC]*dT*k[5mC]*k[5mC]*kA) [compound 800068]
5. 830128 (antisense kA*k[5mC]*k[5mC]*dT*d[5mC]*d[5mC]*dG*dA*dG*dG*d[5mC]*dA*d[5mC]*k[5mC]*kA*k[5mC]) [compound 830128]
6. 800059 (antisense kA*kA*kA*dA*d[5mC]*dA*dA*dG*dA*d[5mC]*dA*dG*dG*kG*kA*k[5mC]) [compound 800059]

Reply:
1: 31%; 2: 61%; 3: 62%; 4: 34%; 5: 87%; 6: 31%
